The reported measurements were obtained from patent US8124586.

Biological target: human plasmin (human, UniProt P00747 97-810, limits assumed)
Sequence (P00747 97-810 limits assumed): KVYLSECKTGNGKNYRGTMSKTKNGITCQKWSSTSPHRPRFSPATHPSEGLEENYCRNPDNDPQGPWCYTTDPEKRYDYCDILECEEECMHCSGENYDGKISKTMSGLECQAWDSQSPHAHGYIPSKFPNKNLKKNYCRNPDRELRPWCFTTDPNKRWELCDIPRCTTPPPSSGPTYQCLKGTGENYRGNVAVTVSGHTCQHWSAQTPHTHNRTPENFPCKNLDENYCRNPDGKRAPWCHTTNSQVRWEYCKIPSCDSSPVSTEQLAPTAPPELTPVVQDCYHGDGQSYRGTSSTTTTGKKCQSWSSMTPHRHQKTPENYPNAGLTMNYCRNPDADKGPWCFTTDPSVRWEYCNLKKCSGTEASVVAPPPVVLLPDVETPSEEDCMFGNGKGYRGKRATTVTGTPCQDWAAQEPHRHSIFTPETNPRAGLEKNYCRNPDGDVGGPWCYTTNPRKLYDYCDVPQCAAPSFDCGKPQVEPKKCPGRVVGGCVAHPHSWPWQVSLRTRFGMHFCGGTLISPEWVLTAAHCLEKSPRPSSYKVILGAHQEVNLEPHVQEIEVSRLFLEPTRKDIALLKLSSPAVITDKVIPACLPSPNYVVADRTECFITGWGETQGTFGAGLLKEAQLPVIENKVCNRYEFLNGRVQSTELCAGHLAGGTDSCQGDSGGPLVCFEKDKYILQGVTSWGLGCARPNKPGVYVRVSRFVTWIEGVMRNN
Test: protease inhibition, Ki,app
observed property: Ki (nM)
Reply numerically in nM, unit not repeated.

What the record says about PEP-1 KI polypeptide (designed binder, Non-naturally occurring Kunitz domain polypeptide from a phage display library; Molecular weight 7,054 Daltons) EAMHSFCAFKADDGPCRAAHPRWFFNIFTRQCEEFIYGGCEGNQNRFESLEECKKMCTRD : Ki is 140
